List of activity at 100 µM values.
Tested on: M. mycetomatis genome strain MM55
assay_procedure: CLSI M38-A2 based in vitro susceptibility screening (XTT or resazurin), growth at fixed concentration
Type: cell-based, Madurella mycetomatis
condition_info: Madurella mycetomatis, 100 uM, first replicate column; read-out: Percentage survival at 100um, 100 uM A

{"molecule": "Nc1nc(=O)c(Br)c(-c2cccc(Cl)c2)[nH]1 [MMV1645152]", "unit": "%", "activity at 100 µM": 87.5}
{"molecule": "COc1ccccc1NC(=O)c1ccccc1Sc1ccc([N+](=O)[O-])cc1 [MMV1580484]", "unit": "%", "activity at 100 µM": 60.9}
{"molecule": "COc1ccc(COc2cc3oc(=O)c4cc(C(C)O)ccc4c3cc2OC)cc1 (centres unmarked) [MMV1580799]", "unit": "%", "activity at 100 µM": 90.3}
{"molecule": "COc1cc(C(C)(C)CCCC(C)C)cc(OC)c1OC [MMV1782102]", "unit": "%", "activity at 100 µM": 90.3}
{"molecule": "CCc1ccccc1OCCN1CCCCCC1 [MMV1633962]", "unit": "%", "activity at 100 µM": 61.1}

---

Tested on: M. mycetomatis genome strain MM55
assay_procedure: CLSI M38-A2 based in vitro susceptibility screening (XTT or resazurin), growth at fixed concentration
Type: cell-based, Madurella mycetomatis
condition_info: Madurella mycetomatis, 100 uM, mean of three replicates; read-out: Percentage survival at 100um, 100 uM mean
Rule: activity at 100 µM below 80% gives yes, anything at or above gives no.

{"compound": "Cc1[nH]c2ccccc2c1CC(=O)N[C@@H](Cc1ccccc1)C(=O)N(C)c1ccccc1", "label": "no"}
{"compound": "CC(Cc1ccccc1)C(=O)Nc1ccc(Cl)cc1C(=O)O (stereo not drawn)", "label": "no"}
{"compound": "CCc1c(OCC2CCC2)c2cc(F)ccc2[nH]c1=O", "label": "yes"}
{"compound": "O=C(NN1C(=O)[C@@H]2C3C=CC([C@H]4C[C@@H]34)[C@@H]2C1=O)c1ccc(C(F)(F)F)cc1", "label": "no"}
{"compound": "CCNC(=O)Nc1cn2c(-c3ncc(CC)cn3)cc(-c3cccnc3)cc2n1", "label": "no"}
{"compound": "Cc1nc2ccc(Oc3ccccc3)cc2c2c1CCN2CCc1ccccc1", "label": "yes"}

---

System: M. mycetomatis genome strain MM55
assay_procedure: CLSI M38-A2 based in vitro susceptibility screening (XTT or resazurin), growth at fixed concentration
Format: cell-based, Madurella mycetomatis
condition_info: Madurella mycetomatis, 25 uM, mean of three replicates; read-out: Percentage survival at 25um, 25 uM mean
property_measured: activity at 25 µM (%)

{"molecule": "Cc1ccc(N2CCC(CCOc3ccc(S(C)(=O)=O)cc3)CC2)nn1", "assay_value": 86.9}
{"molecule": "O=C(Cn1cnc2ccccc2c1=O)Nc1ccccc1", "assay_value": 80.3}
{"molecule": "Cc1ncc([N+](=O)[O-])n1CC(C)O (stereo not drawn)", "assay_value": 111}

---

Catalogue of compounds with associated activity at 25 µM
Tested on: M. mycetomatis genome strain MM55
assay_procedure: CLSI M38-A2 based in vitro susceptibility screening (XTT or resazurin), growth at fixed concentration
Format: cell-based, Madurella mycetomatis
condition_info: Madurella mycetomatis, 25 uM, mean of three replicates; read-out: Percentage survival at 25um, 25 uM mean
property_measured: activity at 25 µM (%)

{"sample_smiles": "Nc1nc(O)c2ncn(COCCO)c2n1", "assay_value": 90.3}
{"sample_smiles": "Cc1[nH]c2ccccc2c1CCNCc1ccc(/C=C/C(=O)NO)cc1", "assay_value": 90.9}
{"sample_smiles": "O=C(/C=C/n1cnc(-c2cc(C(F)(F)F)cc(C(F)(F)F)c2)n1)NNc1cnccn1", "assay_value": 90.4}
